Where these numbers come from: patent US20170037110A1

I'd be grateful if you could share measured peptide exchange yield for these entries.
MEASURED_TARGET: T1, HLA-A*02:01 (human)
T1 construct: monomers captured on streptavidin plates; also called MHC class I
ASSAY_REMARKS: UV peptide exchange ELISA

I would be grateful if you could provide peptide exchange yield for each of the following entries.
1. GLLPGDRLVSV
2. RLLAQVPGL
3. VQIHQVAQV
4. SLLFSLFEA

Response line:
1: 50 to 75%; 2: 50 to 75%; 3: 50 to 75%; 4: 20 to 50%
